Attribution: PubChem BioAssay (Tox21)

Test: qHTS assay to identify small molecule antagonists of the retinoid acid receptor (RAR) signaling pathway - cell viability counter screen (AID 1159551); further: on the % scale 0 is the no-effect control and ±100 the full control effect; nearly all actives have a fitted effect of over 35% in size
Details: C3RL4 cells viability, ATP luminescence (CellTiter-Glo), 6 h; series mostly up to 92.4 µM
Records with an inconclusive call do not appear. Calls of active or inactive are those of the source. The call rests on the fitted dose curve; in most records, active means well fitted cell-killing curve with a large enough effect in the repeat runs; inconclusive means weak or mixed curves, or effect the other way; inactive means flat fitted curve, though single readings scatter.
readout: activity change, negative = cytotoxicity

compound	resultValue
O=C(/C=C/c1ccccc1)NCCO	inactive
CC(C)CCO	inactive
CC(=O)OC(C(=O)c1ccccc1)c1ccccc1 (stereo not drawn)	inactive
CN(C)CCOCCN(C)CCO	inactive
CCc1nccnc1C	inactive
CC(C)C(=O)c1ccccc1	inactive
COc1ccc(/C=N/NC(=O)c2ccncc2)cc1OC	inactive
O=C1OC(=O)c2ccccc21	inactive

Inquiry: Can you share its activity change, negative = cytotoxicity? I mean this compound: "Nc1nc(=O)n([C@@H]2O[C@H](CO)[C@@H](O)[C@@H]2F)cc1I"
Reply text: inactive

Inquiry: Continue with "O=C(O)Cc1cccc(-c2cc(CCCCCCc3ccc(O[C@H]4O[C@H](CO)[C@@H](O)[C@H](O)[C@@H]4O)c(-c4cccc(CC(=O)O)c4)c3)ccc2O[C@H]2O[C@H](CO)[C@@H](O)[C@H](O)[C@@H]2O)c1"
Reply text: -1.44% [at 0.349 µM] (inactive)

Inquiry: And for "O=c1cc(O)c(Cl)c[nH]1" ?
Reply text: inactive

Inquiry: Repeat with CCCCOC(=O)C(C)OC(=O)CCC (stereo not drawn)
Reply text: inactive

Inquiry: Follow-up entry: "CCCCCCCCC(=O)OCC"
Reply text: inactive
